- ASSAY_SYSTEM: IGF2 (Homo sapiens, UniProt P01344)
- Sequence (P01344 25-91): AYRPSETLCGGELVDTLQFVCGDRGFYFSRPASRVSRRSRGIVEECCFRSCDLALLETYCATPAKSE
- PROTOCOL_DETAILS: SPR (Biacore T200) of recombinant IGF2R domain 11 mutants on immobilised biotinylated IGF2
- Format: binding
- Parameters: purchased GroPep
- ASSAY_CONDITIONS: Table 1; 25° C., HBS-EP pH 7.4

MOLECULE | Kinetics kon
Q1632L: domain 11 HI loop mutant Q1632L, probably AB5 background (protein) MKSNEHDDCQVTNPSTGHLFDLSSLSGRAGFTAAYAKGWGVYMSICGENENCPPGVGACFGQTRISVGKANKRLRYVDQVLQLVYKDGSPCPSKSGLSYKSVISFVCRPEAGPTNRPMLISLDKLTCTLFFSWHTPLACEQATECSV | 3.18e+06 M⁻¹ s⁻¹
AB5: IGF2R domain 11 with five AB loop mutations S1543A, E1544K, K1545G, G1546W, L1547G (YAKGWG) (protein) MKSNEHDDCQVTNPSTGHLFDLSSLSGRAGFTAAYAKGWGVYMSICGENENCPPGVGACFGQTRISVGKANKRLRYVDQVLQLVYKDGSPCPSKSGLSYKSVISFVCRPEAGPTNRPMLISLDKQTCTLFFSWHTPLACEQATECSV | 4.21e+06 M⁻¹ s⁻¹
S1602H: domain 11 AB5 background + FG loop S1602H (protein) MKSNEHDDCQVTNPSTGHLFDLSSLSGRAGFTAAYAKGWGVYMSICGENENCPPGVGACFGQTRISVGKANKRLRYVDQVLQLVYKDGSPCPSKHGLSYKSVISFVCRPEAGPTNRPMLISLDKQTCTLFFSWHTPLACEQATECSV | 3.61e+06 M⁻¹ s⁻¹
